Kindly state pEC50 for each of the entries shown.
system-under-test: human D4 (D4.4 variant) (Homo sapiens)
run-description: cell-based
Please keep in mind that pEC50 is minus log10 of the molar concentration; only the number is needed.

Would you mind telling me what pEC50 value was observed for `CC(C)N1C[C@H](C)[C@H](NC(=O)N2Cc3ccccc3[C@@H]2C)C1` ?
6.46

Dear colleague, I am looking for the recorded pEC50 of the following compound: `C=Cn1cc(CNC[C@@H](CO)Cc2ccccc2Br)cn1`
7.39

Requested field: pEC50. Item: `C[C@H](N[C@H](CO)Cc1ccccc1)c1cc2c(s1)CCC2`
4.98

What pEC50 value was documented for this compound, `C=C(C)COCCNC[C@H](O)Cc1ccc(C(F)(F)F)cc1` ?
5.11
